This listing pairs compounds with measured IC50.
assayTarget: human HPK1 protein (Homo sapiens)
Construct: recombinant human HPK1 protein (a.a. 1-346) was expressed in Sf9 insect cells; GST (N); purchased Signalchem M23-11G; host or cells: Sf9 insect cells (baculovirus)
Sequence (Q92918 1-346): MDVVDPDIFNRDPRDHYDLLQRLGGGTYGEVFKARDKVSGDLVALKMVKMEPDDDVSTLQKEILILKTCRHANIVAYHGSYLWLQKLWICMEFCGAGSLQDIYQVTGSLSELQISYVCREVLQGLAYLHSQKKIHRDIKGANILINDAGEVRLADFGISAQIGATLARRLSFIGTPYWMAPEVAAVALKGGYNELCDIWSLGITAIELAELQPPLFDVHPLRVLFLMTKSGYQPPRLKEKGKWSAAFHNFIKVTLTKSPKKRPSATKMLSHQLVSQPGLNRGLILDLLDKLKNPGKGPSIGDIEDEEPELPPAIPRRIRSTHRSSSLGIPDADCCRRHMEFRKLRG
methodSummary: Human HPK1 protein TR-FRET assay
Format: biochemical
particulars: 1 mM ATP, Table 19

Sample records with IC50:
compound | IC50
CC1CN(C(=O)Nc2cnc(OC3CCN(C)CC3)c(C(F)(F)F)c2)Cc2cc(Oc3ccnc4[nH]ncc34)cnc21 (stereo not shown) [VII-9] | 500 to 5000 nM
CCN1CCN(Cc2ccc(NC(=O)N3Cc4cc(Oc5ccnc6[nH]c(C)cc56)ccc4C(C(C)C)C3)cc2C(F)(F)F)CC1 (stereo not shown) [IV-36] | < 500 nM
C[C@H]1c2cc(Oc3ccnc4[nH]ccc34)ccc2CCN1C(=O)Nc1ccc(CN2CCN(CCO)CC2)c(C(F)F)c1 [V-18] | < 500 nM

Now examine the next entry.
Qu. Given the compound CCN1CCN(Cc2ccc(NC(=O)N3CCc4ccc(Oc5ccnc6[nH]c(C7CC7)cc56)cc4[C@@H]3C)cc2C(F)(F)F)CC1 [V-26] , write its reported IC50.
Ans. < 500 nM

Value source: patent US20210139484A1
